Test: Chemical Stability at pH 7 in aqueous buffer
Assay type: physicochemical
Conditions: pH 7, 37° C., low concentration, read-out: Chemical stability at pH 7 half-life (t 1/2)
observable: half-life (min)
Answer in min, number only, no unit symbol.

- compound: "CCOC(=O)c1ccc2[nH]c([S+]([O-])Cc3nccc(OC)c3OC)nc2c1 (stereo not drawn)"
  units: "min"
  half-life: 270
- compound: "COc1ccnc(C[S+]([O-])c2nc3cc(C(C)=O)c(C)cc3[nH]2)c1OC (stereo not drawn)"
  units: "min"
  half-life: 470

In the following, a different compound is considered.
[in] Entry under review: COC(=O)c1cc2nc([S+]([O-])Cc3nccc(OC)c3OC)[nH]c2cc1C (stereo not drawn) . Reported half-life?
[out] 480
